assay: Metabolic stability in mouse liver microsomes assessed as compound remaining at 0.5 uM incubated for 10 mins relative to control; format: ADME, Microsome; settings: liver microsomes, read-out: Stability
Exercise: state measured remaining at 10 min, 0.5 µM for each of the compounds provided.
Give bare numbers, in %.

The cases that follow already have their remaining at 10 min, 0.5 µM on record.
                                   compound  readout_value
0  C=CC1(C=C)Oc2c(NC(=O)Nc3ccc(C)cc3)cc(-c3ccccc3-c3nn[nH]n3)cc2[C@@H]1c1ccccc1             77
1  Cc1ccc(NC(=O)Nc2cc(-c3ccccc3-c3nn[nH]n3)cc3c2O[C@@H](C)CCC[C@H]3c2ccccc2)cc1             66
2  CCCOc1c(CCC)cc(-c2ccccc2C(=O)O)cc1NC(=O)Nc1ccc(C)cc1             82
3  C=C[C@@H]1Oc2c(NC(=O)Nc3ccc(C)cc3)cc(-c3ccccc3-c3nn[nH]n3)cc2[C@@H]1c1ccccc1 (racemic)             57
4  Cc1ccc(NC(=O)Nc2cc(-c3ccccc3-c3nn[nH]n3)cc3c2OCC=CC3c2ccccc2)cc1 (racemic)             68

I have 6 compounds here; please give me remaining at 10 min, 0.5 µM for each one.
1. Cc1ccc(NC(=O)Nc2cc(-c3ccccc3-c3nc(=O)[nH]o3)cc3c2OCCCC3c2ccccc2)cc1 (stereo in doubt; 19)
2. COc1ccc(-c2ccc(Oc3ccccc3C(C)(C)C)c(NC(=O)Nc3ccccc3F)c2)cc1C(=O)O
3. CCCC(CCC)Oc1ccc(-c2ccccc2-c2nn[nH]n2)cc1NC(=O)Nc1ccc(C)cc1
4. CCCOc1c(CCC)cc(-c2ccccc2-c2nn[nH]n2)cc1NC(=O)Nc1ccc(C)cc1
5. Cc1ccc(NC(=O)Nc2cc(-c3ccccc3-c3nn[nH]n3)cc3c2O[C@@H](C)C/C=C\[C@H]3c2ccccc2)cc1
6. Cc1ccc(NC(=O)Nc2cc(-c3ccccc3-c3nn[nH]n3)cc3c2OCCCC3c2ccccc2)cc1 (stereo in doubt; 21)

output:
1. 56
2. 61
3. 47
4. 68
5. 76
6. 84

I have 4 compounds here; please give me remaining at 10 min, 0.5 µM for each one.
1. Cc1ccc(NC(=O)Nc2cc(-c3ccccc3-c3nn[nH]n3)cc3c2OC(C)(C)[C@H]3c2ccccc2)cc1 (racemic)
2. Cc1ccc(NC(=O)Nc2cc(-c3ccccc3-c3nnn[nH]3)ccc2N(CC(C)C)CC(C)C)cc1
3. Cc1ccc(NC(=O)Nc2cc(-c3ccccc3-c3nn[nH]n3)ccc2OC(C(C)C)C(C)C)cc1
4. CC(C)CN(CC(C)C)c1ccc(-c2ccccc2C(=O)O)cc1NC(=O)Nc1ccccc1F

output:
42
33
2
81

response.value for C=C[C@H]1Oc2c(NC(=O)Nc3ccc(C)cc3)cc(-c3ccccc3-c3nnn[nH]3)cc2[C@@H]1c1ccccc1 (racemic) (field: remaining at 10 min, 0.5 µM) = 75

###

Exercise: state measured IC50 for each of the compounds provided.
Target: Cytochrome P450 2C8 (Homo sapiens, UniProt P10632)
Sequence (P10632 whole entry): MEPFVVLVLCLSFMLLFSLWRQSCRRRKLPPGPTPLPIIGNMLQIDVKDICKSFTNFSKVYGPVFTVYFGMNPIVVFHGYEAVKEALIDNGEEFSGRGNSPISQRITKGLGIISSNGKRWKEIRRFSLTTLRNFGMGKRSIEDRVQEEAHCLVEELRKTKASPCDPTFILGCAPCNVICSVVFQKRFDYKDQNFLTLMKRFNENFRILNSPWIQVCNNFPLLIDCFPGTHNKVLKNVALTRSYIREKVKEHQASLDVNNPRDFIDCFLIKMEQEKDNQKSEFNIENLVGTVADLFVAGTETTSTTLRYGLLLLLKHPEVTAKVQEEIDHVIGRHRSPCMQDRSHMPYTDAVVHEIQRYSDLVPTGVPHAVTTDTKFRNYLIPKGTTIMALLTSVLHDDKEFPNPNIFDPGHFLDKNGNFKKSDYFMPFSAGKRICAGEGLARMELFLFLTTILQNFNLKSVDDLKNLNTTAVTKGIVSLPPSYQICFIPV
Assay: Inhibition of human CYP2C8
Type: ADME
One number for each entry, in µM.

>>> df
                                   compound                               target_desc  metric  readout_value
0  Cc1ccc(NC(=O)Nc2cc(-c3ccccc3-c3nn[nH]n3)cc3c2OCCCC3c2ccccc2)cc1 (stereo in doubt; 21)  Cytochrome P450 2C8 (Homo sapiens, UniProt P10632)    IC50             18

Next compound, IC50 to be filled in.
response.value for Cc1ccc(NC(=O)Nc2cc(-c3ccccc3-c3nnn[nH]3)ccc2N(CC(C)C)CC(C)C)cc1 (field: IC50) = 9.2

###

Exercise: state measured log10 IC50 for each of the compounds provided.
target: Cytochrome P450 2C9 (Homo sapiens); experiment: Inhibition of CYP2C9 (unknown origin); format: ADME
Sequence (P11712 whole entry): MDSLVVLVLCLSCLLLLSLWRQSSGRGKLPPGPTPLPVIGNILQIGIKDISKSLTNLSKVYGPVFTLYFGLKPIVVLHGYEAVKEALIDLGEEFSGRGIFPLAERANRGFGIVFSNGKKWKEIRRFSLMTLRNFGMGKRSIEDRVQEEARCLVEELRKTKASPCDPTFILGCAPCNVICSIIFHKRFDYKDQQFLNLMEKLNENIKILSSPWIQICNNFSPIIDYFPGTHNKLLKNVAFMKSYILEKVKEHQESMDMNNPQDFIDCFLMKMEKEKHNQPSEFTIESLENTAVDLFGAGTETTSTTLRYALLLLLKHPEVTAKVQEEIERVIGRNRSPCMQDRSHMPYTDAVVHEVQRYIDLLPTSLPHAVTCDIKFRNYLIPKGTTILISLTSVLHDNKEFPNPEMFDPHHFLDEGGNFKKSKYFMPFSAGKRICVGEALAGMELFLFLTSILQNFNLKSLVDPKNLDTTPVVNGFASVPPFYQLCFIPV
Quick note: numbers are log10 of IC50, with µM as the unit.

In [3]: df
Out[3]:
                                   compound  readout_value
0  C=C[C@@H]1Oc2c(NC(=O)Nc3ccc(C)cc3)cc(-c3ccccc3-c3nn[nH]n3)cc2[C@@H]1c1ccccc1 (racemic)          -0.01

I have 3 compounds here; please give me log10 IC50 for each one.
1. CCCC(CCC)Oc1ccc(-c2ccccc2-c2nn[nH]n2)cc1NC(=O)Nc1ccc(C)cc1
2. CC(C)CN(CC(C)C)c1ccc(-c2ccccc2C(=O)O)cc1NC(=O)Nc1ccccc1F
3. Cc1ccc(NC(=O)Nc2cc(-c3ccccc3-c3nn[nH]n3)cc3c2OCCCC3c2ccccc2)cc1 (stereo in doubt; 22)

output:
[0.26, 0.71, 0.83]

###

Exercise: state measured half-life for each of the compounds provided.
assay: Stability in human liver microsomes assessed as half life; type: ADME, Microsome
Output should be the measured figure followed by the unit it is expressed in.

                                   compound  readout_value
0  Cc1ccc(NC(=O)Nc2cc(-c3ccccc3-c3nn[nH]n3)cc3c2OCCCC3c2ccccc2)cc1 (stereo in doubt; 21)         18 min

Next compound, half-life to be filled in.
response.value for Cc1ccc(NC(=O)Nc2cc(-c3ccccc3-c3nnn[nH]3)ccc2N(CC(C)C)CC(C)C)cc1 (field: half-life) = 9.1 min

###

biological target: Tryptophan 2,3-dioxygenase (Homo sapiens, UniProt P48775); assay: Inhibition of TDO (unknown origin) expressed in HEK cells; assay type: cell-based
Sequence (P48775 whole entry): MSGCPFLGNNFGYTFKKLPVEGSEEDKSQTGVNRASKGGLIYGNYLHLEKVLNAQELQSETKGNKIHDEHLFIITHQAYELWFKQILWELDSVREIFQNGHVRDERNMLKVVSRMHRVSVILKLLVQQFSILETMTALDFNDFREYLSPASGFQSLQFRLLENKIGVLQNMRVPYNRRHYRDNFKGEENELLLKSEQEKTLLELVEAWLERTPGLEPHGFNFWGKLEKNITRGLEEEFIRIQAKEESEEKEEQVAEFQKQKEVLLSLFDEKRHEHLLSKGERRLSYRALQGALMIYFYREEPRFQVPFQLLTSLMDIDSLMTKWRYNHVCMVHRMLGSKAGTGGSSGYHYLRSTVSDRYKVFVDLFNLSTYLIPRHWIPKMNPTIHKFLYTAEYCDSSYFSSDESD
pIC50: −log10 of the molar value.
metric: pIC50

                                   compound                               target_desc  metric  readout_value
0  C=CC1(C=C)Oc2c(NC(=O)Nc3ccc(C)cc3)cc(-c3ccccc3-c3nn[nH]n3)cc2[C@@H]1c1ccccc1  Tryptophan 2,3-dioxygenase (Homo sapiens, UniProt P48775)   pIC50         < 5.12
1  COc1ccc(-c2ccc(Oc3ccccc3C(C)(C)C)c(NC(=O)Nc3ccccc3F)c2)cc1C(=O)O  Tryptophan 2,3-dioxygenase (Homo sapiens, UniProt P48775)   pIC50         < 5.12
2  Cc1ccc(NC(=O)Nc2cc(-c3ccccc3-c3nnn[nH]3)ccc2N(CC(C)C)CC(C)C)cc1  Tryptophan 2,3-dioxygenase (Homo sapiens, UniProt P48775)   pIC50         < 5.12
3  Cc1ccc(NC(=O)Nc2cc(-c3ccccc3-c3nc(=O)[nH]o3)cc3c2OCCCC3c2ccccc2)cc1 (stereo in doubt; 19)  Tryptophan 2,3-dioxygenase (Homo sapiens, UniProt P48775)   pIC50         < 5.22

I have 2 compounds here; please give me pIC50 for each one.
1. Cc1ccc(NC(=O)Nc2cc(-c3ccccc3-c3nn[nH]n3)cc3c2OCCCC3c2ccccc2)cc1 (stereo in doubt; 21)
2. C=C[C@H]1Oc2c(NC(=O)Nc3ccc(C)cc3)cc(-c3ccccc3-c3nnn[nH]3)cc2[C@@H]1c1ccccc1 (racemic)

output:
1: < 5.22; 2: < 5.12

###

target: Cytochrome P450 1A2 (Homo sapiens)
Sequence (P05177 whole entry): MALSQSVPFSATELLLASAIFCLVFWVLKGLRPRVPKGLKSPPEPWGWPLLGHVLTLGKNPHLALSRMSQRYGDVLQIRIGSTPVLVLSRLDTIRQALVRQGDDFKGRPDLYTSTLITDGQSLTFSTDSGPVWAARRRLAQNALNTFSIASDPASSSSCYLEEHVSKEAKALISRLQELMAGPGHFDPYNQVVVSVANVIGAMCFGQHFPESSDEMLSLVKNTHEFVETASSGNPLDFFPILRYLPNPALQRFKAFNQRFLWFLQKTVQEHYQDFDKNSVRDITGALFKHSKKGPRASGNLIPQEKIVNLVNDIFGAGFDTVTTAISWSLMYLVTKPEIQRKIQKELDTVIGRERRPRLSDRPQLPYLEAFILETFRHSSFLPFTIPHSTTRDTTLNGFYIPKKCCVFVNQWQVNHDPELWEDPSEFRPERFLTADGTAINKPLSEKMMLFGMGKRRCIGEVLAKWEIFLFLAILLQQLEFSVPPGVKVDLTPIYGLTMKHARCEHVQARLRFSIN
metric: IC50

response.value for Cc1ccc(NC(=O)Nc2cc(-c3ccccc3-c3nn[nH]n3)cc3c2OCCCC3c2ccccc2)cc1 (stereo in doubt; 21) (field: IC50) = > 20 µM

###

Measured IC50 (Voltage-gated inwardly rectifying potassium channel KCNH2 (Homo sapiens, UniProt Q12809))
Numbers only, in µM.

In [3]: df
Out[3]:
                                   molecule                               target_desc  readout_value
0  Cc1ccc(NC(=O)Nc2cc(-c3ccccc3-c3nn[nH]n3)cc3c2OCC=CC3c2ccccc2)cc1 (racemic)  Voltage-gated inwardly rectifying potassium channel KCNH2 (Homo sapiens, UniProt Q12809)             69
1  Cc1ccc(NC(=O)Nc2cc(-c3ccccc3-c3nn[nH]n3)ccc2OC(C(C)C)C(C)C)cc1  Voltage-gated inwardly rectifying potassium channel KCNH2 (Homo sapiens, UniProt Q12809)             18

Next molecule, IC50 to be filled in.
response.value for CCCOc1c(CCC)cc(-c2ccccc2-c2nn[nH]n2)cc1NC(=O)Nc1ccc(C)cc1 (field: IC50) = 40
